This listing pairs binders with measured kon.
Target: T1, recombinant human CD3 epsilon/delta heterodimer (human, UniProt P07766 23-126; P04234 22-105)
T1 construct: Recombinant protein in solution (200-50 nM) in the Octet assay; also called hCD3 E/D; human CD3E/D
T1 sequence (P07766 23-126, stated change not applied, chain 1 of 2): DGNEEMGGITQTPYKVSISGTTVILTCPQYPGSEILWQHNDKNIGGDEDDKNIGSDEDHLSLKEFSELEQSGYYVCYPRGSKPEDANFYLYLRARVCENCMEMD
T1 sequence (P04234 22-105, stated change not applied, chain 2 of 2): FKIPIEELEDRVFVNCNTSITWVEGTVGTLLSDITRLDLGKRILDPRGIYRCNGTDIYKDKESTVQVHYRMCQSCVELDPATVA
Assay: Octet BLI, mAb on FAB2G sensor, hCD3 E/D 200-50 nM; R^2 0.99

[
  {
    "binder": "ABL-CD3-55 (antibody, V domains shown, Chimeric hybridoma mAb: human V, CH1, upper hinge; mouse middle hinge, CH2, CH3) VH: EVQLVESGGGLVKPGGSLRLSCAASGFTFSIYSMNWVRQAPGKGLEWVSSISSGSSYIYYADSVKGRFTISRDNAKSSLFLQMNSLRAEDTAVYYCAREKRELLFDYWGQGTLVTVSS VL: NFMLTQPHSVSESPGKTVTISCTRSSGSIASNYVQWYQQRPGSSPTTVIYEDNQRPSGVPDRFSGSIDRSSNSASLTISGLKTEDEADYYCQSYDSSNRVFGGGTKLTVL",
    "unit_symbol": "M⁻¹ s⁻¹",
    "kon": 376000
  },
  {
    "binder": "ABL-CD3-28 (antibody, V domains shown, Chimeric hybridoma mAb: human V, CH1, upper hinge; mouse middle hinge, CH2, CH3) VH: QVQLQQSGPGLVKPSQTLSLTCAISGDSVSSNSVAWNWIRQSPSRGLEWLGRTYYRSKWYNECAGSVKSRITINPDTSKNQFSLQLNSVTPEDTAIYYCARERKWELFLDYWGQGTLVTVSS VL: NFMLTQPHSVSESPGKTVTISCTRSSGSIASNYVQWYQQRPGSSPTTVIYEDNQRPSGVPDRFSGSIDSSSNSASLTISGLKTEDEADYYCQSFDSSNVVFGGGTKLTVL",
    "unit_symbol": "M⁻¹ s⁻¹",
    "kon": 168000
  },
  {
    "binder": "ABL-CD3-63 (antibody, V domains shown, Chimeric hybridoma mAb: human V, CH1, upper hinge; mouse middle hinge, CH2, CH3) VH: QVQLQESGPGLVKPSETLSLTCTVSGGSISSYYWSWIRQPAGKGLEWIGRIYTSGSTKYNPSLKSRVTMSVDTSKNQFSLKLISVTAADTAVYFCARERIRDLYFDYWGQGTLVTVSS VL: NFMLTQPHSVSESPGKTVTISCTRTSGSIASNYVQWYQQRPGSSPTTVIYEDNQRPSGVPDRFSGSIDSSSNSASLTISGLKTEDEAAYYCQSYDRSNRVFGGGTKLTVL",
    "unit_symbol": "M⁻¹ s⁻¹",
    "kon": 127000
  }
]
